Organ weights, Kidney values by entry
- test-name: Body and organ weights of huCETP transgenic mice (Example 5)
- Format: in vivo
- test-conditions: 50 mg/kg i.p. twice per week, week 6
e = 2'-O-(2-methoxyethyl) (MOE); d = 2'-deoxy (DNA)
endpoint-name: Organ weights, Kidney (mg)

substance	endpoint-name	unit-of-measure	observed-measurement
ISIS 349515: 5-10-5 MOE gapmer AACTTCCACCACGCTGGAGG (sugars from the 5' end e5 d10 e5, backbone and methylation of C not given here)	Organ weights, Kidney	mg	349.5
ISIS 349512: 5-10-5 MOE gapmer TTGCCTTCTGCTACAAGCCC (sugars from the 5' end e5 d10 e5, backbone and methylation of C not given here)	Organ weights, Kidney	mg	333.8
ISIS 349511: 5-10-5 MOE gapmer CCCGACCTCCTTGGAGACTT (sugars from the 5' end e5 d10 e5, backbone and methylation of C not given here)	Organ weights, Kidney	mg	312.5
ISIS 349517: 5-10-5 MOE gapmer CAGCACTTTAATGCCAGTGG (sugars from the 5' end e5 d10 e5, backbone and methylation of C not given here)	Organ weights, Kidney	mg	355.5

* * *

- Tested on: human CETP mRNA
- test-name: Dose-dependent antisense inhibition of human CETP in SW872 liposarcoma cells (Example 3)
- Format: cell-based
- test-conditions: 300 nM, Lipofectin, ~16 hours (Example 3)
e = 2'-O-(2-methoxyethyl) (MOE); d = 2'-deoxy (DNA)
percent inhibition of CETP values by entry

substance	percent inhibition of CETP / %
ISIS 17291: GACAAGTGGCTGATCTGGAT, 6-8-6 MOE; first disclosed in U.S. Ser. No. 11/031,827 (antisense; sugars from the 5' end e6 d8 e6, backbone and methylation of C not given here)	0
ISIS 17305: CCAGTGGGCCTTTAGGATAG, 6-8-6 MOE; first disclosed in U.S. Ser. No. 11/031,827 (antisense; sugars from the 5' end e6 d8 e6, backbone and methylation of C not given here)	55

* * *

- test-name: Plasma cholesterol and triglyceride levels in huCETP transgenic mice (Example 5)
- Format: in vivo
- test-conditions: plasma, 50 mg/kg i.p. twice per week, week 3
e = 2'-O-(2-methoxyethyl) (MOE); d = 2'-deoxy (DNA)
Triglycerides values by entry
endpoint-name: Triglycerides (mg/dL)

substance	unit-of-measure	observed-measurement
ISIS 349515: 5-10-5 MOE gapmer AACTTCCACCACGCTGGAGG (sugars from the 5' end e5 d10 e5, backbone and methylation of C not given here)	mg/dL	83
ISIS 349512: 5-10-5 MOE gapmer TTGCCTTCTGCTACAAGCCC (sugars from the 5' end e5 d10 e5, backbone and methylation of C not given here)	mg/dL	100
ISIS 349511: 5-10-5 MOE gapmer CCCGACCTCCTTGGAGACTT (sugars from the 5' end e5 d10 e5, backbone and methylation of C not given here)	mg/dL	87
ISIS 349517: 5-10-5 MOE gapmer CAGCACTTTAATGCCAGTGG (sugars from the 5' end e5 d10 e5, backbone and methylation of C not given here)	mg/dL	68

* * *

- test-name: Plasma cholesterol and triglyceride levels in huCETP transgenic mice (Example 5)
- Format: in vivo
- test-conditions: plasma, 50 mg/kg i.p. twice per week, week 3
e = 2'-O-(2-methoxyethyl) (MOE); d = 2'-deoxy (DNA)
LDL values by entry
endpoint-name: LDL (mg/dL)

substance	unit-of-measure	observed-measurement
ISIS 349517: 5-10-5 MOE gapmer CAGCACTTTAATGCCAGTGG (sugars from the 5' end e5 d10 e5, backbone and methylation of C not given here)	mg/dL	14
ISIS 349515: 5-10-5 MOE gapmer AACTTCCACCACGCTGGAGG (sugars from the 5' end e5 d10 e5, backbone and methylation of C not given here)	mg/dL	19
ISIS 349511: 5-10-5 MOE gapmer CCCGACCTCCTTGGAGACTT (sugars from the 5' end e5 d10 e5, backbone and methylation of C not given here)	mg/dL	15
ISIS 349512: 5-10-5 MOE gapmer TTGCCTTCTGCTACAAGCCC (sugars from the 5' end e5 d10 e5, backbone and methylation of C not given here)	mg/dL	14
